Test: recombinant UMI read abundance after kanamycin selection (control-corrected) (log10(CPM+1)); higher = more efficient recombination; extreme values may be limits of the assay; sequences stand for … in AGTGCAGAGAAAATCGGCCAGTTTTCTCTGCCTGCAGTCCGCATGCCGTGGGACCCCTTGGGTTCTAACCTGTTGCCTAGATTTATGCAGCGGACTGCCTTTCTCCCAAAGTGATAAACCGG…AGGTTGGTTTCACT; site = the 11-nt donor
A collection of sequences and their measured recombinant UMI read abundance (log10)
Just the number, please, no unit after it.

SEQUENCE CONTENT	recombinant UMI read abundance (log10)
TTTCGAGCATGGACCGGTTTTCCCGGTAATCCGTATTTGCA (site GTTCGAGCTTG)	0.969
TTTCGCACATGGACCGGTTTTCCCGGTAATCCGTATTTGCG (site TTTCGCACTCG)	0.00398
CCTAATACATGGACCGGTTTTCCCGGTAATCCGTATTTGGA (site CCTAATACTCC)	0.00642

Query: State its recombinant UMI read abundance (log10): AGGAACCCATGGACCGGTTTTCCCGGTAATCCGTATTTGCA (site AGGAACCCTTG)
Result: 0.786

Query: State its recombinant UMI read abundance (log10): GAAGATTCATGGACCGGTTTTCCCGGTAATCCGTATTTGTG (site GAAGATTCTCA)
Result: 2.81

Query: State its recombinant UMI read abundance (log10): TAGAATACATGGACCGGTTTTCCCGGTAATCCGTATTTGCC (site TAGAATACTAG)
Result: 0

Query: State its recombinant UMI read abundance (log10): ACCAGAACATGGACCGGTTTTCCCGGTAATCCGTATTTGAG (site ACTAGAACTCT)
Result: 0.155

Query: State its recombinant UMI read abundance (log10): GATAGAACATGGACCGGTTTTCCCGGTAATCCGTATTTGGC (site GGTAGAACTGC)
Result: 0

Query: State its recombinant UMI read abundance (log10): CGGACATCATGGACCGGTTTTCCCGGTAATCCGTATTTGCC (site CGGACATCTGG)
Result: 2.66

---

A collection of sequences and their measured recombinant barcode read abundance (log10)
Experiment: recombinant barcode read abundance after kanamycin selection (control-corrected) (log10(CPM+1)); higher = more efficient recombination; sequences stand for … in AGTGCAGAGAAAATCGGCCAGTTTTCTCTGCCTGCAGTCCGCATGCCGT…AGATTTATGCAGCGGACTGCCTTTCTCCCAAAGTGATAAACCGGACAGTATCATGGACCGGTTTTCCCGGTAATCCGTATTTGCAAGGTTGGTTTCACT; site = the 11-nt target
Just the number, please, no unit after it.

Query: State its recombinant barcode read abundance (log10): GCCTGTTCTTGGGTTCTAACCTGTTGCCT (site GTCTGTTCTAG)
Result: 0.137

Query: State its recombinant barcode read abundance (log10): GGGAACCCTTGGGTTCTAACCTGTTGCTC (site GGGAACCCTTA)
Result: 0.509

Query: State its recombinant barcode read abundance (log10): GATCATCCTTGGGTTCTAACCTGTTGCCT (site GTTCATCCTAG)
Result: 0.0462

Query: State its recombinant barcode read abundance (log10): CAGTCTACTTGGGTTCTAACCTGTTGCCT (site CGGTCTACTAG)
Result: 0.132
